System: RAW-Dual (murine macrophage reporter line)
Experiment: IRF reporter (Lucia luciferase) activity fold change vs agonist alone; higher = enhanced IRF activity
Settings: modulator concentration 10 µM; agonist: 3'3'-cGAMP 10 ug/mL
Hi, to clarify the labels: Criterion met covers IRF reporter from 0.6 upward, Criterion not met covers anything below 0.6.

[
  {
    "MOLECULE": "CNCC[C@H](Oc1cccc2ccccc12)c1cccs1",
    "TARGET_OR_SYSTEM": "RAW-Dual (murine macrophage reporter line)",
    "LABEL": "Criterion not met"
  },
  {
    "MOLECULE": "COC(=O)c1c(NC(=O)C2CCCCC2)sc2c1CC(C)(C)NC2(C)C",
    "TARGET_OR_SYSTEM": "RAW-Dual (murine macrophage reporter line)",
    "LABEL": "Criterion met"
  },
  {
    "MOLECULE": "CC(C)(C)c1cc(C(=O)NN=Cc2ccc([N+](=O)[O-])cc2)[nH]n1",
    "TARGET_OR_SYSTEM": "RAW-Dual (murine macrophage reporter line)",
    "LABEL": "Criterion met"
  },
  {
    "MOLECULE": "CCC(C)(C)C(=O)OC1CC(C)C=C2C=CC(C)C(CCC3CC(O)CC(=O)O3)C21 (stereo not given)",
    "TARGET_OR_SYSTEM": "RAW-Dual (murine macrophage reporter line)",
    "LABEL": "Criterion not met"
  },
  {
    "MOLECULE": "C(#Cc1ccc(C=Nc2nccs2)cc1)c1ccccc1",
    "TARGET_OR_SYSTEM": "RAW-Dual (murine macrophage reporter line)",
    "LABEL": "Criterion not met"
  },
  {
    "MOLECULE": "Cc1cc(C(=O)N2CCC(Oc3cccc4cccnc34)CC2)n(C)n1",
    "TARGET_OR_SYSTEM": "RAW-Dual (murine macrophage reporter line)",
    "LABEL": "Criterion met"
  },
  {
    "MOLECULE": "CCOCCOC(=O)C1=C(C)NC2=C(C(=O)CCC2)C1c1coc2ccc(C)cc2c1=O (stereo not given)",
    "TARGET_OR_SYSTEM": "RAW-Dual (murine macrophage reporter line)",
    "LABEL": "Criterion met"
  },
  {
    "MOLECULE": "CCCOc1cccc(C(=O)Nc2scc(-c3ccccc3)c2C(=O)OC(C)C)c1",
    "TARGET_OR_SYSTEM": "RAW-Dual (murine macrophage reporter line)",
    "LABEL": "Criterion met"
  },
  {
    "MOLECULE": "CCC(=O)N1c2ccccc2NC2=C(C(=O)CC(c3ccccc3F)C2)C1c1ccc(C)cc1 (stereo not given)",
    "TARGET_OR_SYSTEM": "RAW-Dual (murine macrophage reporter line)",
    "LABEL": "Criterion met"
  }
]

---

System: RAW-Dual (murine macrophage reporter line)
Assay: IRF reporter (Lucia luciferase) activity fold change vs agonist alone; higher = enhanced IRF activity
Details: modulator concentration 10 µM; agonist: 3'3'-cGAMP 10 ug/mL
Kindly note that classification relies on IRF reporter with these boundaries: low = under 0.9, middle = from 0.9 up to 1, high = 1 and over

[
  {
    "MOLECULE": "Cc1cc(Cl)ccc1NC(=O)c1ccc(CN2CCN(c3ccccc3)CC2)cc1",
    "TARGET_OR_SYSTEM": "RAW-Dual (murine macrophage reporter line)",
    "LABEL": "low"
  },
  {
    "MOLECULE": "NC(=NOC(=O)C(c1ccccc1)C1CCCC1)c1ccccn1 (stereo not given)",
    "TARGET_OR_SYSTEM": "RAW-Dual (murine macrophage reporter line)",
    "LABEL": "low"
  },
  {
    "MOLECULE": "CN1[C@@H]2CC[C@H]1C[C@@H](OC(c1ccccc1)c1ccccc1)C2.CS(=O)(=O)O",
    "TARGET_OR_SYSTEM": "RAW-Dual (murine macrophage reporter line)",
    "LABEL": "low"
  },
  {
    "MOLECULE": "C[C@H](N[C@@H](CCc1ccccc1)C(=O)O)C(=O)N1CCC[C@H]1C(=O)O.O.O",
    "TARGET_OR_SYSTEM": "RAW-Dual (murine macrophage reporter line)",
    "LABEL": "high"
  },
  {
    "MOLECULE": "Cc1nnc(NC(=O)c2ccccc2C(=O)O)s1",
    "TARGET_OR_SYSTEM": "RAW-Dual (murine macrophage reporter line)",
    "LABEL": "high"
  },
  {
    "MOLECULE": "CCS(=O)(=O)N1N=C(c2ccc(NS(C)(=O)=O)cc2)CC1c1ccccc1 (stereo not given)",
    "TARGET_OR_SYSTEM": "RAW-Dual (murine macrophage reporter line)",
    "LABEL": "middle"
  },
  {
    "MOLECULE": "Cc1c(C(=O)Nc2ccc(N3C[C@@H](C)O[C@@H](C)C3)nc2)cccc1-c1ccc(OC(F)(F)F)cc1",
    "TARGET_OR_SYSTEM": "RAW-Dual (murine macrophage reporter line)",
    "LABEL": "low"
  },
  {
    "MOLECULE": "CN1CCN2c3ncccc3Cc3ccccc3C2C1 (stereo not given)",
    "TARGET_OR_SYSTEM": "RAW-Dual (murine macrophage reporter line)",
    "LABEL": "low"
  },
  {
    "MOLECULE": "O=c1cc(CO)occ1O",
    "TARGET_OR_SYSTEM": "RAW-Dual (murine macrophage reporter line)",
    "LABEL": "high"
  },
  {
    "MOLECULE": "CCCC1=NN2C(=N)C(=Cc3ccc(OCc4ccc(F)cc4)c(OCC)c3)C(=O)N=C2S1",
    "TARGET_OR_SYSTEM": "RAW-Dual (murine macrophage reporter line)",
    "LABEL": "middle"
  },
  {
    "MOLECULE": "O=C(CCc1ccc(O)cc1)c1c(O)cc(O)cc1OC1OC(CO)C(O)C(O)C1O (stereo not given)",
    "TARGET_OR_SYSTEM": "RAW-Dual (murine macrophage reporter line)",
    "LABEL": "middle"
  },
  {
    "MOLECULE": "COCCOCC1CCN(C(=O)c2cc(-c3cccc(OC)c3)n[nH]2)CC1",
    "TARGET_OR_SYSTEM": "RAW-Dual (murine macrophage reporter line)",
    "LABEL": "middle"
  },
  {
    "MOLECULE": "Cc1c(C(=O)Nc2cccc3ccccc23)cccc1[N+](=O)[O-]",
    "TARGET_OR_SYSTEM": "RAW-Dual (murine macrophage reporter line)",
    "LABEL": "low"
  },
  {
    "MOLECULE": "Fc1ccc(Oc2nc(Nc3cccc(Cl)c3)nc(N3CCOCC3)n2)cc1",
    "TARGET_OR_SYSTEM": "RAW-Dual (murine macrophage reporter line)",
    "LABEL": "low"
  },
  {
    "MOLECULE": "CCCCn1c(CNC(=O)c2cccs2)nc2ccccc21",
    "TARGET_OR_SYSTEM": "RAW-Dual (murine macrophage reporter line)",
    "LABEL": "high"
  },
  {
    "MOLECULE": "NS(=O)(=O)C#Cc1ccccc1",
    "TARGET_OR_SYSTEM": "RAW-Dual (murine macrophage reporter line)",
    "LABEL": "low"
  },
  {
    "MOLECULE": "CN(C)S(=O)(=O)N1CCC(CNC(=O)NC2CCCC2)CC1",
    "TARGET_OR_SYSTEM": "RAW-Dual (murine macrophage reporter line)",
    "LABEL": "middle"
  },
  {
    "MOLECULE": "CC1CC(=O)C2=C(C1)OC(N)=C(C#N)C2c1ccc(Cl)cc1 (stereo not given)",
    "TARGET_OR_SYSTEM": "RAW-Dual (murine macrophage reporter line)",
    "LABEL": "low"
  },
  {
    "MOLECULE": "COc1ccc([N+](=O)[O-])cc1NC(=O)c1ccccc1SC",
    "TARGET_OR_SYSTEM": "RAW-Dual (murine macrophage reporter line)",
    "LABEL": "middle"
  },
  {
    "MOLECULE": "O=c1oc2ccccc2c(O)c1Cc1c(O)c2ccccc2oc1=O",
    "TARGET_OR_SYSTEM": "RAW-Dual (murine macrophage reporter line)",
    "LABEL": "high"
  },
  {
    "MOLECULE": "O=C(CSC1CCCCC1)Nc1cc(C(F)(F)F)ccc1Cl",
    "TARGET_OR_SYSTEM": "RAW-Dual (murine macrophage reporter line)",
    "LABEL": "high"
  },
  {
    "MOLECULE": "CCN(CC)CC#CC(OC)(c1ccccc1)c1ccccc1.Cl",
    "TARGET_OR_SYSTEM": "RAW-Dual (murine macrophage reporter line)",
    "LABEL": "low"
  },
  {
    "MOLECULE": "Clc1ccc2c(c1)CCc1cccnc1C2=C1CCNCC1",
    "TARGET_OR_SYSTEM": "RAW-Dual (murine macrophage reporter line)",
    "LABEL": "low"
  },
  {
    "MOLECULE": "CC1(C)[C@H](C(=O)O)N2C(=O)C[C@H]2S1(=O)=O",
    "TARGET_OR_SYSTEM": "RAW-Dual (murine macrophage reporter line)",
    "LABEL": "middle"
  }
]
